Values compiled from patent US4701448A.

assay: Stability, 5 weeks at 45° C. and humidity of 80% (HPLC remaining rate); type: physicochemical; settings: solid, 80% humidity, after 5 weeks, humidity of 80%
Where a name gives a salt, the structure may show the parent alone.
Each item that follows carries a reported remaining at 840 h.
Value type: remaining at 840 h (%)

[
  {
    "Compound": "CCC(C)C(=O)OC1CC(C)C=C2C=CC(C)C(CCC(CC(O)CC(=O)OC)OP(=O)(O)O)C21 (centres unmarked) [CK3A methyl ester-2K salt, Dipotassium salt of CK3A methyl ester]",
    "Unit": "%",
    "Obs value": 83
  },
  {
    "Compound": "CCC(C)C(=O)OC1CCC=C2C=CC(C)C(CCC(CC(O)CC(=O)OC)OP(=O)(O)O)C21 (centres unmarked) [CB3A methyl ester-2K salt, Dipotassium salt of CB3A methyl ester]",
    "Unit": "%",
    "Obs value": 84
  }
]

###

Reported LD50 values for the following compounds.
assay: Acute toxicity, mouse; format: in vivo; conditions: in vivo, per os (oral administration)
Where a name gives a salt, the structure may show the parent alone.

[
  {
    "Compound": "CCC(C)C(=O)OC1CCC=C2C=CC(C)C(CCC(CC(O)CC(=O)O)OP(=O)(O)O)C21 (centres unmarked) [CB3A-3K salt, Tripotassium salt of CB3A]",
    "LD50": "> 2000 mg/kg"
  },
  {
    "Compound": "CCC(C)C(=O)OC1CC(C)C=C2C=CC(C)C(CCC(CC(O)CC(=O)O)OP(=O)(O)O)C21 (centres unmarked) [CK3A-3K salt, Tripotassium salt of CK3A]",
    "LD50": "> 2000 mg/kg"
  }
]

###

// reported LD50 per item
experiment: Acute toxicity, mouse; format: in vivo; settings: in vivo, ip, intraperitoneal injection
Counter-ions that a name gives are not always drawn.

[
  {
    "Compound": "CCC(C)C(=O)OC1CCC=C2C=CC(C)C(CCC(CC(O)CC(=O)O)OP(=O)(O)O)C21 (centres unmarked) [CB3A-3K salt, Tripotassium salt of CB3A]",
    "LD50": "> 500 mg/kg"
  },
  {
    "Compound": "CCC(C)C(=O)OC1CC(C)C=C2C=CC(C)C(CCC(CC(O)CC(=O)O)OP(=O)(O)O)C21 (centres unmarked) [CK3A-3K salt, Tripotassium salt of CK3A]",
    "LD50": "> 500 mg/kg"
  }
]
